# EGFR (human), P00533 [T790M]: pIC50 values follow
# Sequence (P00533 whole entry T790M, looked up): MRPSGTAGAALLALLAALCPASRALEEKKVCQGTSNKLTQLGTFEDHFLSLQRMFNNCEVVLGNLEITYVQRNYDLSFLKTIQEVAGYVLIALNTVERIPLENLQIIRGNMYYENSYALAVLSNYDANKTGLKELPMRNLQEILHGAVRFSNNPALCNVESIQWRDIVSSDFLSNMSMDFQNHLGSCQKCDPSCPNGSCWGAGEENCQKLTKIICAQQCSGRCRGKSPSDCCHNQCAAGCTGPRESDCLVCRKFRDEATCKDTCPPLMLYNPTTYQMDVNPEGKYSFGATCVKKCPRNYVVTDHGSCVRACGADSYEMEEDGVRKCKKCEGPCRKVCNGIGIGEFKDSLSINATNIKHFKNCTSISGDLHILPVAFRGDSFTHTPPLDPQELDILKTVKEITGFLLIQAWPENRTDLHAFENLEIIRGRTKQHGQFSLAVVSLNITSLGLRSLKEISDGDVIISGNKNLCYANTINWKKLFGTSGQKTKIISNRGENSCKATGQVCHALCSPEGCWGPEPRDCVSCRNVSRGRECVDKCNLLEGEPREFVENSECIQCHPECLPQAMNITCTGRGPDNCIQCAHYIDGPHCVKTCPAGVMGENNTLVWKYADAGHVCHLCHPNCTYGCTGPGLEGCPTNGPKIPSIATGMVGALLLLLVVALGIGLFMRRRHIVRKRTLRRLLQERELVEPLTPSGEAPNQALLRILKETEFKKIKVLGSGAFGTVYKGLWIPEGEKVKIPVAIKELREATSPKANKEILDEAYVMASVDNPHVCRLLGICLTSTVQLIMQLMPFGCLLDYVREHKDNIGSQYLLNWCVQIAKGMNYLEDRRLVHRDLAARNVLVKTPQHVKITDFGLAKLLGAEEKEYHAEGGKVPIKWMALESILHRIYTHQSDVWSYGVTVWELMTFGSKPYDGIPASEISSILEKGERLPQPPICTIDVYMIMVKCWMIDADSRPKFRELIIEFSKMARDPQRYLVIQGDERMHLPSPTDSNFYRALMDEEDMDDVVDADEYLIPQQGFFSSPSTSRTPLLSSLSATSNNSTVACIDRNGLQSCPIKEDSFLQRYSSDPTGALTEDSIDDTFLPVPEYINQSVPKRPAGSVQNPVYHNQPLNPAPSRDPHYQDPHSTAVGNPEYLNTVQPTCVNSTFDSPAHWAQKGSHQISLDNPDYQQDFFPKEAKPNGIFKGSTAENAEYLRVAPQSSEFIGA
Please express pIC50 as -log10 of the molar concentration.

Inquiry: Supply reported pIC50 belonging to this molecule: C=C(CN(C)C)C(=O)NCc1cc(-c2cncnc2Nc2ccc(OCc3ccccn3)c(Cl)c2)on1
Reply text: 7.91

Inquiry: Assign pIC50 to the following record: C=C(CN(C)C)C(=O)NCc1coc(-c2c(N)ncnc2Nc2ccc(F)c(Cl)c2)n1
Reply text: 8.16

Inquiry: Give the value of pIC50 reported for the following: C=CC(=O)NCc1coc(-c2c(N)ncnc2Nc2ccc(Oc3ccccn3)c(Cl)c2)n1
Reply text: 7.80

Inquiry: Please supply the value of reported pIC50 for the item C=CC(=O)NCc1coc(-c2cncnc2Nc2ccc(OCc3ccccn3)c(Cl)c2)n1
Reply text: 7.87
